Measurement notes: Kinetic solubility of the compound in pH 7.4 phosphate buffered saline measured after 2 hrs by LC/MS analysis
Format: physicochemical
Stated conditions: read-out: Kinetic_solubility
Categories are assigned from the measured solubility kinetic at 2 h using these intervals: lo: < 4 µg/mL; med: ≥ 4 µg/mL and < 50 µg/mL; hi: ≥ 50 µg/mL

molecule="COc1cc(F)ccc1Oc1ncc(C(F)(F)F)cc1C(=O)Nc1cccc(S(C)(=N)=O)c1 (centres undefined)" label_class=med
molecule=COc1cc(F)ccc1Oc1ncc(C(F)(F)F)cc1C(=O)Nc1ccncc1 label_class=med
molecule="CN=S(C)(=O)c1cccc(NC(=O)c2cc(C(F)(F)F)cnc2Oc2ccc(F)cc2OC)c1 (centres undefined)" label_class=med
molecule=Cc1cc(F)ccc1Oc1ncc(C(F)(F)F)cc1C(=O)Nc1cccc([S@](C)(=N)=O)c1 label_class=hi
molecule="CS(=N)(=O)c1cccc(NC(=O)c2cc(C(F)(F)F)cnc2Oc2ccc(F)cc2Cl)c1 (centres undefined)" label_class=med
molecule=O=C(Nc1ccc[n+]([O-])c1)c1cc(C(F)(F)F)cnc1Oc1ccc(F)cc1Cl label_class=lo

Request: Which solubility kinetic at 2 h category applies to COc1cc(F)ccc1Oc1cc(C(F)(F)F)ncc1C(=O)Nc1ccnnc1 here?
Response: hi

Request: What would you report for CS(=O)(=O)c1cccc(NC(=O)c2cc(C(F)(F)F)cnc2Oc2ccc(F)cc2F)c1 ?
Response: lo
